Biological target: T1, EsCas13d, nuclease-dead (Eubacterium siraeum, UniProt B0MS50, R295A;H300A;R849A;H854A)
T1 sequence: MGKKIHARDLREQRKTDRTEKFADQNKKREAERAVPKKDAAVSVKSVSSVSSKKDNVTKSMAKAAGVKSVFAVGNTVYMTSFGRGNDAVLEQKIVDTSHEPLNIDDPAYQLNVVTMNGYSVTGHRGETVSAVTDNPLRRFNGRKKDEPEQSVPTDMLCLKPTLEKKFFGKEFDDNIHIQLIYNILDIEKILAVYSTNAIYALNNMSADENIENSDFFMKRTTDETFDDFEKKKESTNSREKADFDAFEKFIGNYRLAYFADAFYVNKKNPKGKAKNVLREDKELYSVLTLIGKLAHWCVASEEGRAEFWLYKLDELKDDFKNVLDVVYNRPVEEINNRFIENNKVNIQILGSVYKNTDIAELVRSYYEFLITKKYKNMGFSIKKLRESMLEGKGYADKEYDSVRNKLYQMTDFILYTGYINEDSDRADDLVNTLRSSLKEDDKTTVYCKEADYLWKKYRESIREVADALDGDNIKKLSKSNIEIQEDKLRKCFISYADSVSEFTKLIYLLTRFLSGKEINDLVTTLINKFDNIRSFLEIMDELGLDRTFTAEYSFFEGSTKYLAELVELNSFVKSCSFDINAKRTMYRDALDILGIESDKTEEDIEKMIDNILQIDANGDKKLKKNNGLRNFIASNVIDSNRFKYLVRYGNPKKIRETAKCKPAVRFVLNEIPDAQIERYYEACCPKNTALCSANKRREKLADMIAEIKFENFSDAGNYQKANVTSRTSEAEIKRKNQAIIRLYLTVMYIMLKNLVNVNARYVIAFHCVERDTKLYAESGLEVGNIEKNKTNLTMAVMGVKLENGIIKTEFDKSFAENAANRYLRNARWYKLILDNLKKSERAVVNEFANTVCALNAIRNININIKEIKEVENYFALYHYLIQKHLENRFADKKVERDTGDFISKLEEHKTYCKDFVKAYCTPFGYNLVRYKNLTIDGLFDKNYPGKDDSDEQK
Assay: crRNA (strand 1, pre-loaded); Mg2+; 40 mM Tris-HCl pH 7.5, 150 mM NaCl, 6 mM MgCl2, 1 mM DTT, 0.1% Tween-20, 0.2 mg/ml BSA; 25 C; 10 min per concentration, then washed
Conditions: tags: His6-TwinStrep-SUMO cleaved; N-terminal SNAP kept (SNAP-Surface 488); label: 3' end held by stalled T7 RNA polymerase
Measure Name: pKd
Scale for pKd: -log10 of concentration given in mol/L; no unit attached.

Binder	Quantitative Result
target 1 insA 3' of 22,insG 3' of 16 (mixed) RNA 1: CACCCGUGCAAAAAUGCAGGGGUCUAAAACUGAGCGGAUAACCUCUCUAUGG RNA 2: GGGAAUGGAUCCACAUCUACGAAUUCGUACACAUAGAGGAGGUUAUCCGCUCACCGAGAUCGGAAGAGCACACGU	7.58

Field pKd (entry target 1 MT 5'PFS UUG 3'PFS AUC (mixed) RNA 1: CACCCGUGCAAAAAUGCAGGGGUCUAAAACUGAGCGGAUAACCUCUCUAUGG RNA 2: GGGAAUGGAUCCACAUCUACGAAUUCUUGCCAUAGAGAGGUUAUCCGCUCAAUCAGAUCGGAAGAGCACACGU ) reads 7.43

Field pKd (entry target 1 MT 5'PFS AAG 3'PFS UGU (mixed) RNA 1: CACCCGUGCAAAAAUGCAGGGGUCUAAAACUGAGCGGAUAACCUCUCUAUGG RNA 2: GGGAAUGGAUCCACAUCUACGAAUUCAAGCCAUAGAGAGGUUAUCCGCUCAUGUAGAUCGGAAGAGCACACGU ) reads 7.45

Field pKd (entry target 1 U3A,G17C (mixed) RNA 1: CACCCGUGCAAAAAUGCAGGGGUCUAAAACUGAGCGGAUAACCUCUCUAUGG RNA 2: GGGAAUGGAUCCACAUCUACGAAUUCGUACCAUACAGAGGUUAUCCGCACACCGAGAUCGGAAGAGCACACGU ) reads 7.36
